Values from patent US20220267441A1

Molecular target: T1, purified human CD45 ectodomain (human CD45RABC antigen) (human, UniProt P08575 26-577)
T1 construct: also called hCD45
T1 sequence: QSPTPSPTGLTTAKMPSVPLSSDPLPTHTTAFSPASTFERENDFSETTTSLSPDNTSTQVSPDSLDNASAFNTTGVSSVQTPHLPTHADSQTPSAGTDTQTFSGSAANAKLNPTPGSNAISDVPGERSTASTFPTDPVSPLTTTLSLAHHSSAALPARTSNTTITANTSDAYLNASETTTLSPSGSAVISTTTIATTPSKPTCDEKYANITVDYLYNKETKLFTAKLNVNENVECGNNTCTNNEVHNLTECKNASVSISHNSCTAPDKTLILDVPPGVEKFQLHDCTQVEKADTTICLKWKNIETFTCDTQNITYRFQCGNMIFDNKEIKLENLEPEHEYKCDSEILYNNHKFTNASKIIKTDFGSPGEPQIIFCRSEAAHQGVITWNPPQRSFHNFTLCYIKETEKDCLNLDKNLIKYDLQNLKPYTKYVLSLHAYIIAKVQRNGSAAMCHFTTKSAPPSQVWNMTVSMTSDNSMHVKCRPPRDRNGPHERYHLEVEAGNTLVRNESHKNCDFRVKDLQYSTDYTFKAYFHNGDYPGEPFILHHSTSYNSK
Experiment: BLI (Octet Red96), IgG on anti-human Fc sensor, 50 nM CD45 ectodomain, 1:1 fit

binder: Antibody 7 (Ab7) (antibody, V domains shown, Human IgG: Ab3 with the Asn to Ser substitution in CDR-L1) VH: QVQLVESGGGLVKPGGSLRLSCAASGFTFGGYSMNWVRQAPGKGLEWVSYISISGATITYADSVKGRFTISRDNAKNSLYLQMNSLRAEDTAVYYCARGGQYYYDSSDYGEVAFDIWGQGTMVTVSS VL: DIVMTQSPLSLPVTPGEPASISCRSSQSLVSSGYNYLDWYLQKPGQSPQLLIYFGSSRASGVPDRFSGSGSGTDFTLKISRVEAEDVGVYYCMQRRRTPPFTFGGGTKVEIK
kon [M⁻¹ s⁻¹]: 264000

binder: Antibody 3 (Ab3) (antibody, V domains shown) VH: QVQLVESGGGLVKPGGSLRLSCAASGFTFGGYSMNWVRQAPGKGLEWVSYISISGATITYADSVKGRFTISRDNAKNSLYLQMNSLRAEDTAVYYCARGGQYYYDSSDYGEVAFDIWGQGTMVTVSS VL: DIVMTQSPLSLPVTPGEPASISCRSSQSLVSNGYNYLDWYLQKPGQSPQLLIYFGSSRASGVPDRFSGSGSGTDFTLKISRVEAEDVGVYYCMQRRRTPPFTFGGGTKVEIK
kon [M⁻¹ s⁻¹]: 260000

binder: Antibody 4 (Ab4) (antibody, V domains shown) VH: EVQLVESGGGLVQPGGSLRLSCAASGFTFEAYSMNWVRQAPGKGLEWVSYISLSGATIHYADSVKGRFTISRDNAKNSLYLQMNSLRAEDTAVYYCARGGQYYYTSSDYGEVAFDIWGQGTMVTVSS VL: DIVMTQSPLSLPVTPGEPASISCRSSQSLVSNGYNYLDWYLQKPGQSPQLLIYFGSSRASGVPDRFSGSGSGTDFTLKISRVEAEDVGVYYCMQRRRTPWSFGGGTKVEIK
kon [M⁻¹ s⁻¹]: 236000

binder: Antibody 2 (Ab2) (antibody, V domains shown) VH: EVQLVESGGGLVQPGGSLRLSCAASGFTFEAYSMNWVRQAPGKGLEWVSYISLSGATIHYADSVKGRFTISRDNAKNSLYLQMNSLRAEDTAVYYCARGGQYYYDSSDYGEVAFDIWGQGTMVTVSS VL: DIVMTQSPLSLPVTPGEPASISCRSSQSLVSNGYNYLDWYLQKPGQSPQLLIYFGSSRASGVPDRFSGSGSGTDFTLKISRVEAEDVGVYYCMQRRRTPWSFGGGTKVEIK
kon [M⁻¹ s⁻¹]: 245000

binder: Antibody 5 (Ab5) (antibody, V domains shown, Human IgG: Ab4 with the Asn to Ser substitution in CDR-L1) VH: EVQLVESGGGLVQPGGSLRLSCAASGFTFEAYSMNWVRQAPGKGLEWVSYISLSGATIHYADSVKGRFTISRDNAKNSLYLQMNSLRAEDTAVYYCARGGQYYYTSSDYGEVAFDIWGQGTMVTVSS VL: DIVMTQSPLSLPVTPGEPASISCRSSQSLVSSGYNYLDWYLQKPGQSPQLLIYFGSSRASGVPDRFSGSGSGTDFTLKISRVEAEDVGVYYCMQRRRTPWSFGGGTKVEIK
kon [M⁻¹ s⁻¹]: 233000

binder: Antibody 6 (Ab6) (antibody, V domains shown) VH: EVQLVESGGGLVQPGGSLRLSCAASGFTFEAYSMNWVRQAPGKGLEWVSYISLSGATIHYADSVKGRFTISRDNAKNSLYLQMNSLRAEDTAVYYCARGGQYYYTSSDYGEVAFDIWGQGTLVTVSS VL: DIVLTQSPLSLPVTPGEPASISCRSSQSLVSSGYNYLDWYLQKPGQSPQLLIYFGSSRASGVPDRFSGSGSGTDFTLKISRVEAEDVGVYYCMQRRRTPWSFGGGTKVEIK
kon [M⁻¹ s⁻¹]: 242000
